- Assay Protocol: Protein binding in rat plasma at 200 to 1000 ng/ml measured after 15 mins by UC-LC/MS/MS analysis
- Assay type: ADME, cell-free
- Condition Notes: read-out: PPB (converted)
Numbered stars: 1 amine (or outer) side, 2 acyl side, 3 side chain; on linkers, the order of the positions; unused ones are H or OH. Bridge positions count the residues as written; N and C are the ends. Square brackets hold non-standard residues; d marks the D form. Peptide text beside a SMILES is read from it. * marks the point of attachment. Phe(4-Cl) = N[C@@H](Cc1ccc(Cl)cc1)C(=O)O; Phe(4-Et) = CCc1ccc(C[C@H](N)C(=O)O)cc1; Phe(4-F) = N[C@@H](Cc1ccc(F)cc1)C(=O)O; Phe(4-Me) = Cc1ccc(C[C@H](N)C(=O)O)cc1; 2Thi = N[C@@H](Cc1cccs1)C(=O)O; X2 = N=C(N)NCCC[C@H](CO)N*; Agmatine = N=C(N)NCCCCN*; X1 = O=C(CCC[*:2])[*:1]
Parameter Measured: fraction unbound at […]

1. CCNC(=O)[C@@H](CCCNC(=N)N)NC(=O)[C@@H]1C[C@@H](O)CN1C(=O)[C@@H]1CSCCCC(=O)N[C@@H](Cc2ccc(Cl)cc2)C(=O)N[C@@H](Cc2ccccc2)C(=O)N[C@@H](C(C)C)C(=O)N[C@@H](CC(N)=O)C(=O)N1 = 0.09
2. CC(C)CNC(=O)[C@@H](CCCNC(=N)N)NC(=O)[C@@H]1CCCN1C(=O)[C@@H]1CCSCCC(=O)N[C@@H](Cc2ccc(Cl)cc2)C(=O)N[C@@H](Cc2ccccc2)C(=O)N[C@@H](C(C)C)C(=O)N[C@@H](CC(N)=O)C(=O)N1 = 0.05
3. CC(C)[C@@H]1NC(=O)[C@H](Cc2ccc(F)cc2)NC(=O)[C@H](Cc2ccc(Cl)cc2)NC(=O)CCCSC[C@@H](C(=O)N2CCC[C@H]2C(=O)N[C@@H](CO)CCCNC(=N)N)NC(=O)[C@H](CC(N)=O)NC1=O ([Phe(4-Cl)][Phe(4-F)]VNCP-X2; linker N-5 via X1) = 0.07
4. CCc1ccc(C[C@@H]2NC(=O)CCCSC[C@@H](C(=O)N3CCC[C@H]3C(=O)N[C@@H](CO)CCCNC(=N)N)NC(=O)[C@H](CC(N)=O)NC(=O)[C@H](C(C)C)NC(=O)[C@H](Cc3cccs3)NC2=O)cc1 ([Phe(4-Et)][2Thi]VNCP-X2; linker N-5 via X1) = 0.16
5. CC(C)[C@@H]1NC(=O)[C@H](Cc2cccs2)NC(=O)[C@H](Cc2ccc(Cl)cc2)NC(=O)CCCSC[C@@H](C(=O)N2CSC[C@H]2C(=O)N[C@H](CCCNC(=N)N)C(=O)NCCc2cccs2)NC(=O)[C@H](CC(N)=O)NC1=O = 0.07
6. CC(C)[C@@H]1NC(=O)[C@H](Cc2ccc(F)cc2)NC(=O)[C@H](Cc2ccc(O)cc2)NC(=O)CCCSC[C@@H](C(=O)N2CCC[C@H]2C(=O)NCCCCNC(=N)N)NC(=O)[C@H](CC(N)=O)NC1=O (Y[Phe(4-F)]VNCP-Agmatine; linker N-5 via X1) = 0.69
7. Cc1ccc(C[C@@H]2NC(=O)CCCSC[C@@H](C(=O)N3CCC[C@H]3C(=O)N[C@@H](CO)CCCNC(=N)N)NC(=O)[C@H](CC(N)=O)NC(=O)[C@H](C(C)C)NC(=O)[C@H](Cc3cccs3)NC2=O)cc1 ([Phe(4-Me)][2Thi]VNCP-X2; linker N-5 via X1) = 0.32
8. CCCCNC(=O)[C@@H](CCCNC(=N)N)NC(=O)[C@@H]1CCCN1C(=O)[C@@H]1CSCCCC(=O)N[C@@H](Cc2ccc(Cl)cc2)C(=O)N[C@@H](Cc2cccs2)C(=O)N[C@@H](C(C)C)C(=O)N[C@@H](CC(N)=O)C(=O)N1 = 0.11
